- target under test: Kv4.2 (Homo sapiens)
- method summary: Patch-clamp inhibition of cloned ion channel current in transfected HEK cells: Kv4.2
- test conditions: integrated current, -80 mV to +60 mV
Counter-ions that a name gives are not always drawn.
readout type: pIC50
# pIC50 = -log10(concentration in molar units)

Ask: Query for Kv4.2 (Homo sapiens): what pIC50 does the record show for Cc1cn2cccc(OCCCCCc3ccccc3)c2n1 [Compound 10, MONOHYDROCHLORIDE] ?
Reply: 6.00

Ask: And then Cc1cn2cccc(OCCC(c3ccccc3)c3ccccc3)c2n1 [Compound 12, MONOHYDROCHLORIDE] , what is it?
Reply: 6.00

Ask: Thanks! And Cc1cn2cccc(OCC3(c4ccccc4)CC3)c2n1 [Compound 13, MONOHYDROCHLORIDE] ?
Reply: 5.52

Ask: And what about the molecule Cc1cn2cccc(OCc3ccc(Cl)cc3Cl)c2n1 [Compound 8, MONOHYDROCHLORIDE] ?
Reply: 4.96

Ask: And Cc1cn2cccc(OCCCc3ccccc3)c2n1 [Compound 2, MONOHYDROCHLORIDE] ?
Reply: 5.15

Ask: Note, next up: Cc1cn2cccc(OCc3ccccc3C(F)(F)F)c2n1 [Compound 7, MONOHYDROCHLORIDE]
Reply: 5.00

Ask: Consider next the molecule Clc1ccc(CCCOc2cccn3cc(-c4ccccc4)nc23)c(Cl)c1 [Compound 5, MONOHYDROCHLORIDE] in the same way.
Reply: 4.15

Ask: Again, but for `Cc1cn2cccc(OCCCc3ccc(Cl)cc3Cl)c2n1`
Reply: 5.70

Ask: Subsequent entry: `COc1ccc(CCCOc2cccn3cc(C)nc23)cc1OC`
Reply: 4.89

====

Field: pIC50. Provide a value for each of the molecules that follow.
- target under test: Kv4.2 (Homo sapiens, UniProt Q9NZV8)
- Sequence (Q9NZV8 whole entry): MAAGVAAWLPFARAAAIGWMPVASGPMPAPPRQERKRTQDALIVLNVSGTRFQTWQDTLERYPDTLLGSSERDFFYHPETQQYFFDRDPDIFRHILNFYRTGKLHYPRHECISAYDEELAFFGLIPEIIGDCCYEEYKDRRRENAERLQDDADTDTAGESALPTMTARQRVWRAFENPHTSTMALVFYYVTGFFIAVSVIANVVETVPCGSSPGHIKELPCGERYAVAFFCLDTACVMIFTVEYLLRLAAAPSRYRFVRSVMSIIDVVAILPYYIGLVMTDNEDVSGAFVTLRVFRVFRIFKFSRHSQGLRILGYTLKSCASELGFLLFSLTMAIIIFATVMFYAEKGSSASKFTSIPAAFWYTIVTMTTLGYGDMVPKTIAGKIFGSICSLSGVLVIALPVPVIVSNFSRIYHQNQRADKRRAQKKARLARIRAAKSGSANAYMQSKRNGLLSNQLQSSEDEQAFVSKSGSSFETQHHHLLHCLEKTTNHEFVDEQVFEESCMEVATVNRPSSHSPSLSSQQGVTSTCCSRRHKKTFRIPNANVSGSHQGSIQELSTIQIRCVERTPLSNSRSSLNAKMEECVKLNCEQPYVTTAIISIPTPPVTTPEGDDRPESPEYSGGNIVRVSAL
- method summary: Patch-clamp inhibition of cloned ion channel current in transfected HEK cells: Kv4.2
- test conditions: integrated current, -80 mV to +60 mV
Where a name gives a salt, the structure may show the parent alone.
When answering, recall that pIC50 equals minus log10 of the concentration in mol/L, and write that number alone.

Ask: Which pIC50 value is on record for FC(F)(F)c1cn2cccc(OCCCc3ccc(Cl)cc3Cl)c2n1 [Compound 15, MONOHYDROCHLORIDE] ?
Reply: 6.22

Ask: // query: Cc1cn2cccc(OCCCOCc3ccccc3)c2n1 [Compound 11, MONOHYDROCHLORIDE]
Reply: 4.85

Ask: Follow-up entry: CCc1cn2cccc(OCCCc3ccc(Cl)cc3Cl)c2n1 [Compound 4, MONOHYDROCHLORIDE]
Reply: 6.10

Ask: How about Cc1cn2cccc(OCCCC3CCCCC3)c2n1 [Compound 9, MONOHYDROCHLORIDE] ?
Reply: 5.52

Ask: What about Cc1cn2cccc(OCCCc3c(Cl)cccc3Cl)c2n1 [Compound 6, MONOHYDROCHLORIDE] ?
Reply: 6.05

====

Would you kindly list pIC50 for each of these compounds?
- target under test: hH1 Na+ current (Homo sapiens)
- Sequence (Q14524 whole entry): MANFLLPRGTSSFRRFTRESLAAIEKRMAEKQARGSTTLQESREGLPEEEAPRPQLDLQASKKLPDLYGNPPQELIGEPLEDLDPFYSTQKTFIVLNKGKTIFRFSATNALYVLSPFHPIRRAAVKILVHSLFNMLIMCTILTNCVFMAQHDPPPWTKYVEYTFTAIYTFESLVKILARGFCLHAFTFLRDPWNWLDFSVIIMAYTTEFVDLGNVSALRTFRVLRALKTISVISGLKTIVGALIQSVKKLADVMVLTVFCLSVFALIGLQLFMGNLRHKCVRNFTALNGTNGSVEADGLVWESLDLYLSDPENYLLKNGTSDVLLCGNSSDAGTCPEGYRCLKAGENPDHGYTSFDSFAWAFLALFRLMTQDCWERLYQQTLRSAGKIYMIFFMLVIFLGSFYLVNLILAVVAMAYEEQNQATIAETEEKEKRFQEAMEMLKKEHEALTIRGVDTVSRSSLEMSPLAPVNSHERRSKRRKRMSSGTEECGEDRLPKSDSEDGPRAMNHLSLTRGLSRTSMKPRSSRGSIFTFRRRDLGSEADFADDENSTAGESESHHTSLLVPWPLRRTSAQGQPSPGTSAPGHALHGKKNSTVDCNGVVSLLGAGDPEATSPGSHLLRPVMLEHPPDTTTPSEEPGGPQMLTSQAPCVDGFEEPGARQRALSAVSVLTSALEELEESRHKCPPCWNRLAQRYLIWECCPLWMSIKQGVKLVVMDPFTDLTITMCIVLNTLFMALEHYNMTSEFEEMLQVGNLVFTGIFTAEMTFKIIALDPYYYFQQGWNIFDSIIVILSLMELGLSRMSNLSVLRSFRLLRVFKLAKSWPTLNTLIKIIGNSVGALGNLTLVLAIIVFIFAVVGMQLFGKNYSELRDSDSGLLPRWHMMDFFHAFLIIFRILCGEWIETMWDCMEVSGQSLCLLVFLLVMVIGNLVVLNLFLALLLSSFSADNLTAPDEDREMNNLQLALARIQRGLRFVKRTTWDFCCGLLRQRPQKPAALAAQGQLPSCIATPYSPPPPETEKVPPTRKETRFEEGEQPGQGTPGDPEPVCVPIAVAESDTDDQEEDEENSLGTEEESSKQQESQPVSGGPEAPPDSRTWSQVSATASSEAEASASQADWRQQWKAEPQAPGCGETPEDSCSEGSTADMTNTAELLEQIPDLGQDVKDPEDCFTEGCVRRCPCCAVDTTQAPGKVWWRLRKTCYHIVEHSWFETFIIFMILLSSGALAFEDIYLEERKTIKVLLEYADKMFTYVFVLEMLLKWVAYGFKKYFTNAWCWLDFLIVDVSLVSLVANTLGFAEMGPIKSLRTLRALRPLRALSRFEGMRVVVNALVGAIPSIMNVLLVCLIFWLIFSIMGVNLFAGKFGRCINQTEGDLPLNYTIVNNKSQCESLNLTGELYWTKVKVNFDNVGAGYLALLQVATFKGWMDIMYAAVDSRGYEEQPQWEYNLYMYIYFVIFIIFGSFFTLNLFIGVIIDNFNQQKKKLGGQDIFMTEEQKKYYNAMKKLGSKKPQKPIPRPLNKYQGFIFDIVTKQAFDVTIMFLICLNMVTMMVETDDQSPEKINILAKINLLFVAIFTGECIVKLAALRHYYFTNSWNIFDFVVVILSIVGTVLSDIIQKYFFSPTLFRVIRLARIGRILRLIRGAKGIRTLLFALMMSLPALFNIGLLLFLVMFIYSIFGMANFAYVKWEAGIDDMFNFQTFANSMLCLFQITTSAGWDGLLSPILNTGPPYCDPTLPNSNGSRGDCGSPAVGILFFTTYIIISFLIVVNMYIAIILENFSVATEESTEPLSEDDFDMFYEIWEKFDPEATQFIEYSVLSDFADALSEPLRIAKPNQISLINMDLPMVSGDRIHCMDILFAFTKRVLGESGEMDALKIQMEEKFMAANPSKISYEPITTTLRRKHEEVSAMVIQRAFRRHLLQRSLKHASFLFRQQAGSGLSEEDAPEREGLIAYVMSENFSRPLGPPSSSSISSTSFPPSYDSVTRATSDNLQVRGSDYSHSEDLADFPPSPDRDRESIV
- method summary: Patch-clamp inhibition of cloned ion channel current in transfected HEK cells: Na
- test conditions: peak hH1 Na+ current, -100 mV to -30 mV
- Experimental: The relevant cloned ion channels (e.g. cardiac hH1, Kv1.4, Kv1.5, Kv4.2, Kv2.1, HERG etc.) are studied by transient transfection into HEK cells using the mammalian expression vector pCDNA3. […] Cells expressing channel protein are detected by cotransfecting cells with the vector pHook-1 (Invitrogen, San Diego, Calif., USA). […] Compounds of the present invention may be evaluated by this method. […] Currents are recorded in the steady-state at a range of drug concentrations during stimulation every 4 s. […]
Counter-ions that a name gives are not always drawn.
Quick note: pIC50 values are minus log10 of concentrations in mol/L.

Ask: Could you share which pIC50 value was measured for `Cc1cn2cccc(OCCCc3ccc(Cl)cc3Cl)c2n1` ?
Reply: 5.10

Ask: Repeat for the following compound: Cc1cn2cccc(OCCCc3ccccc3)c2n1 [Compound 2, MONOHYDROCHLORIDE]
Reply: 4.47

Ask: Can you check Clc1ccc(CCCOc2cccn3cc(-c4ccccc4)nc23)c(Cl)c1 [Compound 5, MONOHYDROCHLORIDE] next?
Reply: 3.62

Ask: Now consider Cc1cn2cccc(OCC3(c4ccccc4)CC3)c2n1 [Compound 13, MONOHYDROCHLORIDE] and answer again.
Reply: 5.10

Ask: Repeat with CCc1cn2cccc(OCCCc3ccc(Cl)cc3Cl)c2n1 [Compound 4, MONOHYDROCHLORIDE]
Reply: 6.00

Ask: And Cc1cn2cccc(OCCC(c3ccccc3)c3ccccc3)c2n1 [Compound 12, MONOHYDROCHLORIDE] ?
Reply: 5.52

Ask: What do you get for FC(F)(F)c1cn2cccc(OCCCc3ccc(Cl)cc3Cl)c2n1 [Compound 15, MONOHYDROCHLORIDE] ?
Reply: 5.10

Ask: Same thing, different compound: Cc1cn2cccc(OCCCC3CCCCC3)c2n1 [Compound 9, MONOHYDROCHLORIDE]
Reply: 4.85

Ask: And for Cc1cn2cccc(OCCCc3c(Cl)cccc3Cl)c2n1 [Compound 6, MONOHYDROCHLORIDE] ?
Reply: 6.52

====

- target under test: UniProt Q12809
- Sequence (Q12809 whole entry): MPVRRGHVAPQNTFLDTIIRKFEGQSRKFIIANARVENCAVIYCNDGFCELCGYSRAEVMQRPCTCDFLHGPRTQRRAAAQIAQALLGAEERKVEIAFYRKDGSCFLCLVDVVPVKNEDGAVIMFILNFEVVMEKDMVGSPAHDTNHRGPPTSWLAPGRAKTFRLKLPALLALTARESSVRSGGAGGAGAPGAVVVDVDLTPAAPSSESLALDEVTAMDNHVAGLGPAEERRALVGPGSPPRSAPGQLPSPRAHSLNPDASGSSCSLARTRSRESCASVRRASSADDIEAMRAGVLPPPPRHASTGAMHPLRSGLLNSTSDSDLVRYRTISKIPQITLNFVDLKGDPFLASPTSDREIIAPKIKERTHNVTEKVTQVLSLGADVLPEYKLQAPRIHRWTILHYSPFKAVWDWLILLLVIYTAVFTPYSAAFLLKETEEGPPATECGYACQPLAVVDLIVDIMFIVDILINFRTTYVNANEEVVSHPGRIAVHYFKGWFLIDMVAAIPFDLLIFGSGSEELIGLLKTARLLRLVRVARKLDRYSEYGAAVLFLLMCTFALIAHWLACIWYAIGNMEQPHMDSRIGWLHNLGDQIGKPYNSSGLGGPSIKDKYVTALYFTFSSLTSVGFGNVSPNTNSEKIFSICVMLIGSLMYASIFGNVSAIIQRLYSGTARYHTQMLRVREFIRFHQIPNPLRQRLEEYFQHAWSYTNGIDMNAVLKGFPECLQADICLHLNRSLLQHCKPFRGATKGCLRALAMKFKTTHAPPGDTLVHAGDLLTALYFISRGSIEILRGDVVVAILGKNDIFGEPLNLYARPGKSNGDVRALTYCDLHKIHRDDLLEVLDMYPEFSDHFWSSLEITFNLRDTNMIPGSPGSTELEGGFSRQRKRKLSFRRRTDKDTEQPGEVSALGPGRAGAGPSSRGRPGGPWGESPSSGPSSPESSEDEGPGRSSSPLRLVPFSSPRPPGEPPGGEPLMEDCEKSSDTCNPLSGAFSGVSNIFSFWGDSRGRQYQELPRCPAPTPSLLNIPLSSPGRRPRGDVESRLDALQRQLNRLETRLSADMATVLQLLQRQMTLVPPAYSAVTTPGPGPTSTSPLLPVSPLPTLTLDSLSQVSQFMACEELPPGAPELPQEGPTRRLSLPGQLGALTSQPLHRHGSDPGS
- method summary: Patch-clamp inhibition of cloned ion channel current in transfected HEK cells: HERG
- test conditions: whole-cell patch clamp
pIC50: −log10 of the molar value. Structures can show the parent of a compound that is named as a salt.
Answer criterion not met if pIC50 is under 6, and criterion met if it is 6 or more.

Ask: Please check the record Cc1cn2cccc(OCc3ccc(Cl)cc3Cl)c2n1 [Compound 8, MONOHYDROCHLORIDE] and state if its pIC50 is at or above 6.
Reply: criterion met

Ask: And then Cc1cn2cccc(OCCCc3ccccc3)c2n1 [Compound 2, MONOHYDROCHLORIDE] , what is it?
Reply: criterion met

Ask: Thanks! And `Cc1nc2c(OCCCc3ccc(Cl)cc3Cl)cccn2c1CO` ?
Reply: criterion met

Ask: Repeat for the following molecule: Cc1nc2c(OCC3(c4ccccc4)CC3)cccn2c1Cl [Compound 39, MONOHYDROCHLORIDE]
Reply: criterion not met

Ask: Next molecule up: Cc1nc2c(OCCCc3ccc(Cl)cc3Cl)cccn2c1N [Compound 26, DIHYDROCHLORIDE]
Reply: criterion met

Ask: Follow-up item: `COc1ccc(CCCOc2cccn3cc(C)nc23)cc1OC`
Reply: criterion met

Ask: Further, for `Cc1nc2c(OCC3(c4ccccc4)CC3)cccn2c1Br` ?
Reply: criterion not met

Ask: Same question for `Clc1ccc(CCCOc2cccn3c4c(nc23)CCC4)c(Cl)c1` please.
Reply: criterion met

Ask: CCc1cn2cccc(OCCCc3ccc(Cl)cc3Cl)c2n1 [Compound 4, MONOHYDROCHLORIDE] , same question.
Reply: criterion met

Ask: Please answer likewise for Cc1cn2c(C)ccc(OCCCc3ccc(Cl)cc3Cl)c2n1 [Compound 34, MONOHYDROCHLORIDE]
Reply: criterion met

Ask: Repeat with Cc1cn2cccc(OCCCc3c(Cl)cccc3Cl)c2n1 [Compound 6, MONOHYDROCHLORIDE]
Reply: criterion met

Ask: Another molecule: `FC(F)(F)c1cn2cccc(OCC3(c4ccccc4)CC3)c2n1`
Reply: criterion not met

Ask: Subsequent entry: `Cc1cn2cccc(OCCCc3ccc(Cl)cc3Cl)c2n1`
Reply: criterion met

====

- target under test: UniProtKB Q12809
- method summary: Patch-clamp inhibition of cloned ion channel current in transfected HEK cells: HERG
- test conditions: whole-cell patch clamp
Structures can show the parent of a compound that is named as a salt.
Answer each item with its documented pIC50.
Please treat pIC50 as minus the base-10 logarithm of the molar concentration.

Ask: Fill blank: measured pIC50 of the molecule Clc1ccc(CCCOc2cccn3cc(-c4ccccc4)nc23)c(Cl)c1 [Compound 5, MONOHYDROCHLORIDE] is ____.
Reply: 6.05

Ask: Query Cc1nc2c(OCCCc3ccc(Cl)cc3Cl)cccn2c1CN(C)C [Compound 25, DIHYDROCHLORIDE] next
Reply: 7.00

Ask: Also, Cc1cn2cccc(OCCCOCc3ccccc3)c2n1 [Compound 11, MONOHYDROCHLORIDE] please.
Reply: 7.10

Ask: Same for Cc1cn2cccc(OCC3(c4ccccc4)CC3)c2n1 [Compound 13, MONOHYDROCHLORIDE]
Reply: 6.40

Ask: And the next one, Cc1cn2cccc(OCCCCCc3ccccc3)c2n1 [Compound 10, MONOHYDROCHLORIDE] ?
Reply: 7.00

Ask: Okay, and CC(=O)Nc1c(C)nc2c(OCCCc3ccc(Cl)cc3Cl)cccn12 [Compound 41, MONOHYDROCHLORIDE] ?
Reply: 6.22

Ask: Input `Cc1nc2c(OCCCc3ccc(Cl)cc3Cl)cccn2c1C(=O)O`
Reply: 5.40

Ask: Also CC(C)c1cn2cccc(OCC3(c4ccccc4)CC3)c2n1 [Compound 38, MONOHYDROCHLORIDE] ?
Reply: 6.00

The origin of these recorded values is patent US7105534B2.
